Test system: NCI-H23
Experiment: NCI tumour cell line growth inhibition, 48 h
Activity calls are given as the source filed them. No stated cut-off is given here; in the data, active = GI50 up to about 1.1 µM and inactive = higher.
REPORTED_ENDPOINT: GI50

Consider the molecule shown here: O=C(/C=C1\Nc2ncccc2N=C1CC(=O)c1ccccc1)c1ccccc1 What is its recorded GI50? 23.1 µM (inactive)

Consider the molecule shown here: NC(=O)NCc1c(C(N)=O)ncn1Cc1ccccc1 What is its recorded GI50? > 100 µM (inactive)

Consider the molecule shown here: CCOC(=O)c1cc2cc(CSc3ccccc3)ccc2oc1=O What is its recorded GI50? > 100 µM (inactive)

Consider the molecule shown here: Cc1ncc([N+](=O)[O-])n1CCn1ccnc1[N+](=O)[O-] What is its recorded GI50? > 100 µM (inactive)

Consider the molecule shown here: Cc1ccc(C2SCC(=O)N2c2ccc(-n3c(-c4ccccc4)nc4ccccc4c3=O)cc2)cc1 (configuration not stated) What is its recorded GI50? 36.4 µM (inactive)

Consider the molecule shown here: CC12CCC(=O)[C@@]1(C)CCCC2=O (some centres not stated) What is its recorded GI50? > 100 µM (inactive)

Consider the molecule shown here: CCOC(=O)c1csc(NC(=O)CN2CCCCC2)n1 What is its recorded GI50? > 100 µM (inactive)

----------
Test system: MDA-MB-435
Assay: NCI tumour cell line growth inhibition, 48 h
The source made the active and inactive calls. Rule as the data show it: active = GI50 up to about 1.1 µM and inactive = higher.
Please go through the items and note down their GI50.

Consider the compound shown here: O=C(O)CN1CCN2CCCCCN(CC1)CCN(CC(=O)O)CC2 What is its recorded GI50? > 100 µM (inactive)

Consider the compound shown here: O=C1CCC(c2ccccc2)=NN1c1nc2ccccc2s1 What is its recorded GI50? 23.3 µM (inactive)

Consider the compound shown here: O=C(Oc1cccnc1)c1cc2cc(CCl)ccc2oc1=O What is its recorded GI50? 25.9 µM (inactive)

Consider the compound shown here: Cn1c(=O)c2c(nc3n2CC(C(=O)O)N3)n(C)c1=O (stereo not given) What is its recorded GI50? > 100 µM (inactive)

Consider the compound shown here: CC(=O)OC1CC2CCC1(C)C2(C)C (stereo not given) What is its recorded GI50? > 100 µM (inactive)

Consider the compound shown here: C[C@H](CCC1=NCCN1)[C@H]1CC[C@H]2[C@@H]3CC[C@@H]4C[C@H](O)CC[C@]4(C)[C@H]3C[C@H](O)[C@]12C What is its recorded GI50? 14.5 µM (inactive)

Consider the compound shown here: c1ccc(SCCP(CCP(c2ccccc2)c2ccccc2)c2ccccc2)cc1 (stereo not given) What is its recorded GI50? 11.5 µM (inactive)

Consider the compound shown here: COc1cccc2c1C(=O)c1c(O)c3c(c(O)c1C2=O)C[C@@](O)(C(=O)CO)C[C@@H]3OC1CC(N(C)C)C(O)C(C)O1 (stereo not given in full) What is its recorded GI50? < 0.01 µM (active)

Consider the compound shown here: CC(CCN)(CCN)[N+](=O)[O-] What is its recorded GI50? > 100 µM (inactive)

Consider the compound shown here: CN(/N=C/c1cccs1)c1ccc([N+](=O)[O-])cc1[N+](=O)[O-] What is its recorded GI50? > 100 µM (inactive)

Consider the compound shown here: Cc1ccc(/N=N/N(C)C(C)C(O)Cc2ccccc2)cc1 (stereo not given) What is its recorded GI50? 35.9 µM (inactive)

Consider the compound shown here: Nc1nc(Nc2ccccc2)sc1C(=O)c1ccco1 What is its recorded GI50? 16.4 µM (inactive)

Consider the compound shown here: Cc1cc(C)c(-n2[nH]c(=O)n(C)c2=O)c(C)c1 What is its recorded GI50? > 100 µM (inactive)

Consider the compound shown here: CC1(C)CC[C@]2(C)[C@@H](O)C[C@]3(C)C(=CC[C@@H]4[C@@]5(C)CC[C@H](O)C(C)(C)[C@@H]5CC[C@]43C)[C@@H]2C1 What is its recorded GI50? > 100 µM (inactive)

Consider the compound shown here: O=S1(=O)C[C@H](NCc2ccccc2)[C@H](NCc2ccccc2)C1 What is its recorded GI50? > 100 µM (inactive)

Consider the compound shown here: COc1ccc(N2C(=O)C3c4[nH]c5ccc(C)cc5c4C4CCC(C)CC4C3C2=O)cc1 (stereo not given) What is its recorded GI50? > 100 µM (inactive)

Consider the compound shown here: CC(=O)O[C@@H]1[C@H](OC2CCCCC2(c2ccccc2)c2ccccc2)O[N+]([O-])=CC12CCCCC2 (stereo not given in full) What is its recorded GI50? 15.6 µM (inactive)

Consider the compound shown here: O=C(Nc1ccccc1F)c1cc2ccc(O)cc2o/c1=N\c1cccc(F)c1 What is its recorded GI50? 14.8 µM (inactive)

Consider the compound shown here: O=C(CN1CCN(Cc2ccccc2)CC1)c1ccc2[nH]c(=O)oc2c1 What is its recorded GI50? > 30.5 µM (inactive)

Consider the compound shown here: CCCCCc1cc2cc3c(c(O)c2c(=O)[nH]1)C1(CCC3)C(=O)c2c(O)c3c(c(O)c2C1=O)C(=O)C(OC)=CC3=O (stereo not given) What is its recorded GI50? 0.908 µM (active)
